Test system: SW-620 colon
experimental.details: NCI tumour cell line growth inhibition, 48 h
The following compounds are listed with their measured TGI values.
readout.label: TGI

{"compound": "O=C1NC2C=CN(Cc3ccccc3)C=C2C(=O)N2CCCC12 (configuration not stated)", "result": "> 100 µM"}
{"compound": "CC(CCC(=O)O)C1CCC2C3C(O)CC4CC(O)CCC4(C)C3CC(O)C12C (configuration not stated)", "result": "> 100 µM"}
{"compound": "CCC(/C=C/c1ccccc1)=N\\Nc1ccc(Cl)c(Cl)c1", "result": "> 100 µM"}
{"compound": "FC(F)(F)c1ccc(-c2cnc(Cl)nc2NCc2cc(C(F)(F)F)cc(C(F)(F)F)c2)cc1", "result": "> 100 µM"}
{"compound": "CS(=O)(=O)Nc1ccc(N=Cc2c(O)[nH]c3ccccc23)cc1", "result": "> 25 µM"}
{"compound": "Cc1[nH]c2ccccc2c1CCNCc1ccc(/C=C/C(=O)NO)cc1", "result": "0.0219 µM"}
{"compound": "C[n+]1cccc2ccc(OC(=O)c3ccccc3)cc21", "result": "> 100 µM"}
{"compound": "CCOP(=O)(OCC)C1=C(c2ccccc2)OC(N)=C(C#N)C1c1ccc(Cl)cc1 (configuration not stated)", "result": "> 100 µM"}
{"compound": "C/C(CC1SCCCS1)=C(/C)CC1SCCCS1", "result": "> 100 µM"}
{"compound": "COc1ccc(C2(O)c3ccccc3C(=O)N(C)C2(O)c2ccc(OC)cc2)cc1 (configuration not stated)", "result": "> 100 µM"}
{"compound": "CN(C)CCn1c(=O)c2ccc3c4c(nn3CCN(C)C)c3cc(O)ccc3n(c1=O)c24", "result": "3.61 µM"}
{"compound": "O=C(CCc1cc(-c2ccccc2)nc(=S)[nH]1)Nc1ccccc1[N+](=O)[O-]", "result": "> 100 µM"}
{"compound": "CN(CCCN(C)CCc1ccc(Cl)c(Cl)c1)CCCN1CCCC1", "result": "7.96 µM"}
{"compound": "CC(C)CC(NC(=O)C(CCI)Cc1ccccc1)C(=O)Nc1ccccc1 (configuration not stated)", "result": "> 100 µM"}
{"compound": "C1CCOC2(CCC3(CC2)OCCCCO3)OC1", "result": "> 100 µM"}
{"compound": "CC1CCC(C(C)C)C(O[C@@H]2OC(=O)C[C@@H]2Sc2ccccc2)C1 (some centres not stated)", "result": "39.2 µM"}
{"compound": "C=C1CCC2C3(C)COC(c4ccccc4Br)OC3CCC2(C)C1C/C=C1/C(=O)OCC1OC(C)=O (configuration not stated)", "result": "1.3 µM"}
